Biological target: alpha7 nicotinic acetylcholine receptor (Rattus norvegicus, UniProt Q05941)
Sequence (Q05941 23-502): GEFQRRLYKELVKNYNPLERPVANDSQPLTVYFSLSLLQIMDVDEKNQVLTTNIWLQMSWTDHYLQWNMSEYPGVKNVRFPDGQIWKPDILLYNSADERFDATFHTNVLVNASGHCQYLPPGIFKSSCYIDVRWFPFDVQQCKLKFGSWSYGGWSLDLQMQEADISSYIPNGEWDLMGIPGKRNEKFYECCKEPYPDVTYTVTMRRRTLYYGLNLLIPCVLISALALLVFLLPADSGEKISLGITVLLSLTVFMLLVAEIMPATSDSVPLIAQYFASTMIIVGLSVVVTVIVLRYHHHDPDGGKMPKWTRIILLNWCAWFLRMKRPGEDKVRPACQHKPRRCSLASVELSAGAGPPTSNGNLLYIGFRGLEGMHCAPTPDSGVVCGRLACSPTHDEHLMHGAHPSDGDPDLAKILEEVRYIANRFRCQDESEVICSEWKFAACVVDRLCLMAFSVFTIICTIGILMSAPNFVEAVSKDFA
Assay: functional FLIPR assay, alpha7 nAChR stably expressed in GH4C1 cells
Settings: agonist, concentration range 0.001 to 30 microM
EXPERIMENTAL ENDPOINT: EC50 (µM)
# unit: µM | format: bare number

For C[N+]1(C)CCN(c2ccccc2)CC1 , what is its reported EC50? 0.98
